Biological target: FAP (Homo sapiens, UniProt Q12884)
Sequence (Q12884 whole entry): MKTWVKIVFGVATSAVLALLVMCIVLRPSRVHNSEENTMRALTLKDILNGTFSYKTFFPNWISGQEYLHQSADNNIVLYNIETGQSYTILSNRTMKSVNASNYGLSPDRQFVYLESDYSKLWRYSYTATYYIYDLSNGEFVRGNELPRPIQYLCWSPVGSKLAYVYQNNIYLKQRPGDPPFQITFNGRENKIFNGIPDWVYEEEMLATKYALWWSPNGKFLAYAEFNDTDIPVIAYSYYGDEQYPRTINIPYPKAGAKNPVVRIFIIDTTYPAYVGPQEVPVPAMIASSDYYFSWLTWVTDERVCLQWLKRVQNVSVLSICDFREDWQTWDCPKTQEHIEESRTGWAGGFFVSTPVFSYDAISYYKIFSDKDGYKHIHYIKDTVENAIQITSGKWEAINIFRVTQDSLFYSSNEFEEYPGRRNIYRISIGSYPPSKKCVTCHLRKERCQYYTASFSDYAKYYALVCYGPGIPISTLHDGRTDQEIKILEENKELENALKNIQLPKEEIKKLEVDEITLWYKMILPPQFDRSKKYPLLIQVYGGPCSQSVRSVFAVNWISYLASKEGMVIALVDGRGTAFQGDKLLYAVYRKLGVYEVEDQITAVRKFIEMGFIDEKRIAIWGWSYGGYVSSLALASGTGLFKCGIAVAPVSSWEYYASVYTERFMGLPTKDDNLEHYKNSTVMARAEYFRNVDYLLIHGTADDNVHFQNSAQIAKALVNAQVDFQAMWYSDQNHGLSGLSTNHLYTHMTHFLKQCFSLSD
Experiment: In vitro inhibition assay on human FAP (Z-GP-AMC substrate)
Type: biochemical
Settings: enzymatic assay; 20 µM Z-GP-AMC, 20 nM FAP; unit inferred
Please use Y for IC50 under 2 nM and N for everything else, ties included.

Past entries and their recorded results:
Request: Is it true that IC50 reported for N#C[C@@H]1CC(F)(F)CN1C(=O)CNC(=O)c1ccnc2c(OCCCNC(=O)COCC(=O)Nc3ccc(CNC(=O)CN4CCN(CC(=O)O)CCN(CC(=O)O)CCN(CC(=O)O)CC4)cc3)cccc12 is less than 2 nM?
Result: Y

Request: Consider N#C[C@@H]1CC(F)(F)CN1C(=O)CNC(=O)c1ccnc2c(OCCCNC(=O)C3CCC(CNC(=O)CN4CCN(CC(=O)O)CCN(CC(=O)O)CCN(CC(=O)O)CC4)CC3)cccc12 (stereo partly shown) . Does its IC50 lie strictly below 2 nM?
Result: N

Request: Take the molecule CN(CCCN1CCN(C(=O)CN2CCN(CC(=O)O)CCN(CC(=O)O)CCN(CC(=O)O)CC2)CC1)c1ccc2nccc(C(=O)NCC(=O)N3CC(F)(F)C[C@H]3C#N)c2c1 [FAPI-46, reference compound] and say whether its IC50 is less than 2 nM.
Result: N

Request: Hello, is IC50 of the following molecule strictly smaller than 2 nM? N#C[C@@H]1CC(F)(F)CN1C(=O)CNC(=O)c1ccnc2c(OCCCNC(=O)CN3CCN(CC(=O)O)CCN(CC(=O)O)CCN(CC(=O)O)CC3)cccc12
Result: Y

Request: Take the molecule N#C[C@@H]1CC(F)(F)CN1C(=O)CNC(=O)c1ccnc2c(OCCCNC(=O)CN3CCN(CCNC(=O)CN4CCN(CC(=O)O)CCN(CC(=O)O)CCN(CC(=O)O)CC4)CC3)cccc12 and say whether its IC50 is less than 2 nM.
Result: Y

Request: In plain terms, does N#C[C@@H]1CC(F)(F)CN1C(=O)CNC(=O)c1ccnc2c(OCCCNC(=O)CCC(C(=O)O)N3CCN(CC(=O)O)CCN(CC(=O)O)CCN(CC(=O)O)CC3)cccc12 (stereo partly shown) come in under 2 nM for IC50?
Result: Y

Moving on to another molecule below.
Request: Criterion: IC50 strictly below 2 nM. Is it met by CC1(C)C(/C=C/C2=C(Oc3ccc(S(=O)(=O)O)cc3)C(=C/C=C3/N(CCCCCC(=O)NCCCOc4cccc5c(C(=O)NCC(=O)N6CC(F)(F)C[C@H]6C#N)ccnc45)c4ccc(S(=O)(=O)O)cc4C3(C)C)/CCC2)=[N+](CCCCS(=O)(=O)[O-])c2ccc(S(=O)(=O)O)cc21 ?
Result: N
